The reported numbers originate from the Immune Epitope Database (IEDB).

# TARGET: HLA-B*08:01
# TEST NAME: IEDB peptide-MHC binding, purified MHC/direct/fluorescence; filed as Kd, often an IC50 or EC50 that approximates it; bounds were set here for any values at or beyond the usual limits of such assays
# TEST SETTINGS: source organism: Coxiella burnetii
pKd: −log10 of the molar value.
MEASURED METRIC: pKd

Look up pKd for this sequence: `SYGNANVSF` ≤ 4.70

----------
# TARGET: HLA-A*26:01
# TEST NAME: IEDB peptide-MHC binding, purified MHC/competitive/fluorescence; filed as Kd, often an IC50 or EC50 that approximates it; bounds were set here for any values at or beyond the usual limits of such assays
# TEST SETTINGS: source organism: Salmonella enterica subsp. enterica serovar Typhi
pKd: −log10 of the molar value.
MEASURED METRIC: pKd

Which pKd reading was recorded for the sequence `KTVRYWHRF` ? ≤ 4.70
